Reported AC50 for target or system Estrogen receptor (Homo sapiens, UniProt P03372), by entry. Note: assay procedure not described here.

# input Lab request: please report AC50 under test system Estrogen receptor (Homo sapiens, UniProt P03372) for `[H]/N=C(/N)NS(=O)(=O)c1ccc(N)cc1`; note: assay procedure not described here
# output > 30 µM

# input Repeat for the following compound: `CC#CC(=O)N1CCC[C@H]1c1nc(-c2ccc(C(=O)Nc3ccccn3)cc2)c2c(N)nccn12`
# output > 30 µM

# input Repeat for the following compound: Cc1c(C)c2c(c(C)c1O)CCC(C)(COc1ccc(CC3SC(=O)NC3=O)cc1)O2 (stereo not given)
# output > 30 µM

# input Repeat for the following compound: CN(C)CCCC1(c2ccc(F)cc2)OCc2cc(C#N)ccc21 (stereo not given)
# output > 30 µM

# input Repeat for the following compound: `COc1ncnc(NS(=O)(=O)c2ccc(N)cc2)c1OC`
# output 22.7 µM

# input Repeat for the following compound: `CCCCCCCC/C=C\CCCCCCCC(=O)O`
# output > 30 µM

# input Repeat for the following compound: `CN(C)CCC=C1c2ccccc2CCc2ccccc21`
# output > 30 µM

# input Repeat for the following compound: `OCc1ccccc1`
# output > 30 µM

# input Repeat for the following compound: `O=c1[nH]c2ccccc2n1CCN1CCN(c2cccc(C(F)(F)F)c2)CC1`
# output > 30 µM

# input Repeat for the following compound: `COC(=O)N(C)c1c(N)nc(-c2nn(Cc3ccccc3F)c3ncccc23)nc1N`
# output > 30 µM
